- Test system: NCI-H23
- Test Summary: NCI tumour cell line growth inhibition, 48 h
Activity calls are given as the source filed them. No stated cut-off is given here; in the data, active = GI50 up to about 1.1 µM and inactive = higher.
Labels: active, inactive

{"Compound": "C[C@H](NC(=O)OC1C2C=CC(O)C1CC2)c1ccccc1 (stereo partly drawn)", "Class Label": "inactive"}
{"Compound": "c1ccc(/N=c2\\snc3scc(-c4ccccc4)n23)cc1", "Class Label": "inactive"}
{"Compound": "CC(C)CCCC(=O)CCCCCCC(=O)CCN(O)C(=O)C(N)CO (stereo not drawn)", "Class Label": "inactive"}
{"Compound": "C/C1=C\\[C@H](C)C[C@H](C)OC(=O)C[C@H](c2ccc(O)cc2)NC(=O)[C@@H](Cc2c(Br)[nH]c3ccccc23)N(C)C(=O)[C@H](C)NC(=O)[C@@H](C)C1 [JASPAMIDE]", "Class Label": "active"}
{"Compound": "O=C1C(Cl)=C(Nc2ccc(S(=O)(=O)Nc3ccccn3)cc2)C(=O)c2ccccc21", "Class Label": "inactive"}
{"Compound": "C=CCNC1=C2C[C@@H](C)C[C@@H](OC)[C@H](OC(=O)CN(C)C)[C@H](C)/C=C(\\C)[C@@H](OC(N)=O)[C@H](OC)/C=C\\C=C(/C)C(=O)NC(=CC1=O)C2=O", "Class Label": "active"}
{"Compound": "Cc1ccc(-c2nc(C)c(C(=O)Nc3ccc(Cl)cc3)s2)cc1", "Class Label": "inactive"}
{"Compound": "Cc1cnc2c(c1)C(=O)N(c1ccc(Oc3ccccc3)cc1)S2(=O)=O", "Class Label": "inactive"}
{"Compound": "COc1ccc(C(=O)C(C(=O)CCC(=O)Nc2cccc(C(F)(F)F)c2)c2ccccc2)cc1 (stereo not drawn)", "Class Label": "inactive"}
{"Compound": "CC(=O)O[C@@H]1[C@H]2[C@@H](OC(=O)c3ccccc3)[C@@H](C)C[C@]2(O)[C@H](OC(C)=O)[C@@]2(C)[C@@H]3CC(C)(C)C(=O)[C@]3(OC(C)=O)C[C@@]12C", "Class Label": "inactive"}
{"Compound": "O=C(NCCCCNCCCNC(=O)OCc1ccccc1)OCc1ccccc1", "Class Label": "inactive"}
{"Compound": "C(=C\\c1ccccc1)/COc1ccccc1C(N1CCOCC1)n1nc2ccccc2n1 (stereo not drawn)", "Class Label": "inactive"}
{"Compound": "COc1ccc(C(=O)O[C@H]2[C@@H]3C=CO[C@@H](OC4OC(CO)C(O)C(O)C4O)[C@@H]3[C@@]3(CO)O[C@@H]23)cc1O (stereo partly drawn)", "Class Label": "inactive"}
{"Compound": "COc1cc2c(c(OC)c1OC)-c1ccc(SC)c(=O)cc1[C@@H](O)CC2", "Class Label": "active"}
{"Compound": "O=NN(CCCl)C(=O)N[C@H]1CC[C@@H](CC(=O)O)CC1", "Class Label": "inactive"}
{"Compound": "NCCCCNCCCNC(=O)c1csc(-c2nc(CCN)sc2Cl)n1", "Class Label": "inactive"}
{"Compound": "O=c1[nH]nc(Cc2ccccc2)n1Nc1ccccc1", "Class Label": "inactive"}
{"Compound": "C=CC1=CSNN1", "Class Label": "inactive"}

###

- System: RXF 393
- Test Summary: NCI tumour cell line growth inhibition, 48 h
Active and inactive are the calls of the source. No stated cut-off is given here; in the data, active = GI50 up to about 1.1 µM and inactive = higher.
Outcomes: active, inactive

{"Compound": "C=C1CC2CC[C@@]34C[C@@H]5O[C@@H]6C(O[C@H]7CC[C@H](CC(=O)OC8[C@@H](C)C9OC%10C[C@]%11(C[C@@H]%12O[C@@]%13(C[C@@H](C)[C@@H]%12O%11)C[C@H](C)[C@@H]%11OC%12CC(C(O)CO)OC%12C[C@@H]%11O%13)OC%10CC9O[C@H]8C[C@H]8O[C@@H](CC[C@@H]1O2)C[C@@H](C)C8=C)O[C@@H]7[C@@H]6O3)C5O4 (stereo partly specified)", "Class Label": "active"}
{"Compound": "O=Cc1c(O)ccc2ccc(O)c(-c3c(O)ccc4ccc(O)cc34)c12", "Class Label": "inactive"}
{"Compound": "CNC(=O)N(C)/N=N/CCCl", "Class Label": "inactive"}
{"Compound": "Cc1[nH]nc(C(=O)N/N=C/c2cccs2)c1/N=N\\N(C)C", "Class Label": "inactive"}
{"Compound": "O=NN(CCCl)C(=O)N[C@H]1CC[C@@H](CC(=O)O)CC1", "Class Label": "inactive"}
{"Compound": "C[C@H](CO)C1=CC(C#C[Si](C)(C)C)N(C(=O)Oc2ccccc2)c2ccccc21 (stereo partly specified)", "Class Label": "inactive"}

###

Listed below: GI50 values for each entry.
- Tested on: Malme-3M
- Test Summary: NCI tumour cell line growth inhibition, 48 h
The source made the active and inactive calls. No stated cut-off is given here; in the data, active = GI50 up to about 1.1 µM and inactive = higher.
Endpoint Label: GI50

{"Molecule": "NC1C/C(=N\\O)c2c(I)sc(I)c21 (stereo not given)", "Endpoint Label": "GI50", "Assay Result": "15.7 µM (inactive)"}
{"Molecule": "NS(=O)(=O)c1nnc(NC(=O)N(c2ccccc2)c2ccccc2)s1", "Endpoint Label": "GI50", "Assay Result": "21.2 µM (inactive)"}
{"Molecule": "Cc1ccc(NC(=O)CC/C(CC(=O)C(C)(C)C)=N/NC(=O)C(N)=O)cc1C", "Endpoint Label": "GI50", "Assay Result": "> 100 µM (inactive)"}
{"Molecule": "C[C@@H]1CC2(C[C@@H](C)C3[C@@H](CC4(C)CCCC5C6=CC(O)(CC[C@]34C)OC6=CC(=O)OC5(C)C)O2)OC1=O (stereo not given in full)", "Endpoint Label": "GI50", "Assay Result": "> 100 µM (inactive)"}
{"Molecule": "COC(=O)CCC(=O)CC(=O)C(=O)Nc1ccc(F)cc1", "Endpoint Label": "GI50", "Assay Result": "> 100 µM (inactive)"}

###

- Tested on: SK-MEL-2
- Test Summary: NCI tumour cell line growth inhibition, 48 h
Calls of active or inactive are those of the source. Cut-off read from the data, not from the text of the source: active = GI50 up to about 1.1 µM and inactive = higher.
Possible outcomes: Y for active, N for inactive

{"Compound": "CSc1c(C#N)c(O)n(-c2ccc(Cl)cc2)c(=O)c1C(C)=O", "Tested Target": "SK-MEL-2", "Class Label": "N"}
{"Compound": "CSC(SC)=C(C#N)C(=O)Nc1ccc(C)cc1", "Tested Target": "SK-MEL-2", "Class Label": "N"}
{"Compound": "Clc1cccc(Cl)c1C1ON=C(c2ccccc2)N1C12CC3CC(CC(C3)C1)C2 (stereo not drawn)", "Tested Target": "SK-MEL-2", "Class Label": "N"}
{"Compound": "CC(=O)Nc1ccc2c3c(cc(O)c2c1)N(C(=O)CCCC(=O)N1CC(CCl)c2c1cc(O)c1cc(NC(C)=O)ccc21)CC3CCl (stereo not drawn)", "Tested Target": "SK-MEL-2", "Class Label": "Y"}
{"Compound": "O=C(NCCCCNCCCNC(=O)OCc1ccccc1)OCc1ccccc1", "Tested Target": "SK-MEL-2", "Class Label": "N"}
{"Compound": "CC1(O)C=CC2CCC1C2O (stereo not drawn)", "Tested Target": "SK-MEL-2", "Class Label": "N"}
{"Compound": "C[C@H](CCC1=NCCN1)[C@H]1CC[C@H]2[C@@H]3[C@H](O)C[C@@H]4C[C@H](O)CC[C@]4(C)[C@H]3CC[C@]12C", "Tested Target": "SK-MEL-2", "Class Label": "N"}
{"Compound": "O=C1/C(=C/c2ccc(Cl)cc2)N=C(c2ccccc2)N1c1nc2ccccc2s1", "Tested Target": "SK-MEL-2", "Class Label": "N"}
{"Compound": "Cc1ccc(-c2nc(C)c(C(=O)Nc3ccc(Cl)cc3)s2)cc1", "Tested Target": "SK-MEL-2", "Class Label": "N"}
{"Compound": "CC(N1CCOCC1)C(O)(c1ccccc1)c1ccccn1 (stereo not drawn)", "Tested Target": "SK-MEL-2", "Class Label": "N"}
{"Compound": "O=C(/C=C/C1C(=O)NC(=O)NC1=O)CC(=O)C(=O)Nc1cc(Cl)c(Cl)cc1Cl", "Tested Target": "SK-MEL-2", "Class Label": "N"}
{"Compound": "CC[C@@]1(O)C(=O)OCc2c1cc1n(c2=O)Cc2c-1nc1ccccc1c2/C=N\\NC(=O)C(N)CCSC (stereo partly drawn)", "Tested Target": "SK-MEL-2", "Class Label": "Y"}
{"Compound": "O=C1N/C(=N\\C2CCCCC2)C2(CCN(CCCC3(c4ccc(F)cc4)OCCO3)CC2)N1c1ccccc1", "Tested Target": "SK-MEL-2", "Class Label": "N"}
{"Compound": "Cc1nc2c(sc3nc4c(cc32)CCC4)c(=O)o1", "Tested Target": "SK-MEL-2", "Class Label": "N"}
{"Compound": "Cc1cc2oc(=N)c(C#N)c(C)c2cc1C", "Tested Target": "SK-MEL-2", "Class Label": "N"}
{"Compound": "CC1(c2ccccc2)CC(c2cccc([N+](=O)[O-])c2)=NO1 (stereo not drawn)", "Tested Target": "SK-MEL-2", "Class Label": "N"}
{"Compound": "CC(=O)/C(=C\\n1c(=S)[nH]c2ccc([N+](=O)[O-])cc21)C(=O)Nc1ccccc1C", "Tested Target": "SK-MEL-2", "Class Label": "N"}
{"Compound": "CCCCCCCCCCCCCCCCCCNc1ccn(C2OC(COP(=O)(O)OCC3OC(n4ccc(NC(=O)CCCCCCCCCCCCCCCCC)nc4=O)C(OC(C)=O)C3OC(C)=O)C(OC(C)=O)C2OC(C)=O)c(=O)n1 (stereo not drawn)", "Tested Target": "SK-MEL-2", "Class Label": "N"}
{"Compound": "O=C1CC(n2cccc2)c2c(Br)sc(Br)c21 (stereo not drawn)", "Tested Target": "SK-MEL-2", "Class Label": "N"}
{"Compound": "COc1ccc(CC2c3cc(OC)c(OC)c(OC)c3CC[N+]2(C)C)cc1Oc1ccc(CC2c3cc4c(c(OC)c3CCN2C)OCO4)cc1 (stereo not drawn)", "Tested Target": "SK-MEL-2", "Class Label": "N"}
{"Compound": "Cc1[nH]c(O)nc1C(=O)c1ccc(-n2ccnc2)cc1", "Tested Target": "SK-MEL-2", "Class Label": "N"}
{"Compound": "COC(=O)c1cc2c(cc1O)[C@@H](NC(C)=O)CCc1cc(OC)c(OC)c(OC)c1-2", "Tested Target": "SK-MEL-2", "Class Label": "Y"}
{"Compound": "COc1ccc2ccnc(Cc3ccc(OCc4ccccc4)c(OC)c3)c2c1", "Tested Target": "SK-MEL-2", "Class Label": "N"}
